Protocol notes: ATG_Ets_CIS: Attagene CIS-FACTORIAL HepG2 Assay for human Erythroblast Transformation Specific (ETS) (AID 2282941)
Reported conditions: HepG2 ETS cis-reporter transcription, actives raise or lower the signal
Active and inactive are the calls of the source. The calls were made as follows: active = hit-call score of the fitted dose curve at least 0.9, where 1 is the maximum; inactive = score below 0.9.
Allowed answers: 1 = active, 0 = inactive

These solved cases illustrate the format of a correct answer.
C1=Cc2ccccc2C1 = 0
CC(=O)CC(N)=O = 0
O=C(c1ccc(O)cc1)c1ccc(O)cc1O = 0

Could you check what this test reported for Cc1cc(C)c(C)cc1C ?
0

Could you kindly confirm the outcome this assay logged for c1ccc(-c2ccccn2)nc1 ?
0

Can you look up the reported call for O=Nc1ccc(O)cc1 for me?
0
